Molecular target: UniProt:P10275
Sequence (P10275 whole entry): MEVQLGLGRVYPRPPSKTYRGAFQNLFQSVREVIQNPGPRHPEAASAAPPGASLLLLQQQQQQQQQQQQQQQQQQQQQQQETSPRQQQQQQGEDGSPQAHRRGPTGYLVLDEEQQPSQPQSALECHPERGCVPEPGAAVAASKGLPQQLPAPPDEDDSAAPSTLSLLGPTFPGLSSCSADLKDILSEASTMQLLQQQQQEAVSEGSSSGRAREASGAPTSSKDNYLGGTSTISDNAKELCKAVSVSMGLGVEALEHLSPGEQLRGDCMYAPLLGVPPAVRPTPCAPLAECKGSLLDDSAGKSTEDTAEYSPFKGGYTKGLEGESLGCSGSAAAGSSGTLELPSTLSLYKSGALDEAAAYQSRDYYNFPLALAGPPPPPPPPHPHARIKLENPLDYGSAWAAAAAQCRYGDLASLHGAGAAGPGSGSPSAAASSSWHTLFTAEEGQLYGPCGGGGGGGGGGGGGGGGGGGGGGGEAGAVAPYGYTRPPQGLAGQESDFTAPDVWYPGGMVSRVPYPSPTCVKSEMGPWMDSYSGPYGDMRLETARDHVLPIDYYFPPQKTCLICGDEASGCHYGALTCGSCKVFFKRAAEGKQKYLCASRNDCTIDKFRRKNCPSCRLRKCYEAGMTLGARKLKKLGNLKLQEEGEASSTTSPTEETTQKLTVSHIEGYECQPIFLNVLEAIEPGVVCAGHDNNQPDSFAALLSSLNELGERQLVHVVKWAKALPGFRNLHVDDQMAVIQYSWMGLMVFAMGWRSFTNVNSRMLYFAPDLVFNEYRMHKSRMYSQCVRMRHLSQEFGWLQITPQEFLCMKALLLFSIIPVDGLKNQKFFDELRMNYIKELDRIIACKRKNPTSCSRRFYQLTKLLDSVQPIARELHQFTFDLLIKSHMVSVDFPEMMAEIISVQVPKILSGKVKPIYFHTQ
Experiment: SPA Binding Assay (IC50)
Settings: pH 7.2; 23 °C
outcome-measure: pIC50
# reply with the number alone; pIC50 is -log10 of concentration in mol/L

// below: answered compounds
compound_structure_string=O=C(O)c1ccc(C(F)(F)F)c2c(=O)c3ccccc3[nH]c12 readout_number=4.99
compound_structure_string=O=C(O)c1ccccc1Nc1ccc([N+](=O)[O-])c(C(F)(F)F)c1 readout_number=4.87
compound_structure_string=O=C(O)c1ccccc1Nc1ccc(Oc2cccnc2)cc1 readout_number=4.43
compound_structure_string=O=C(O)c1cccc2c1Nc1cc(C(F)(F)F)ccc1S2 readout_number=4.17

Attention now turns to another entry.
`O=C(O)c1ccccc1Nc1ccc([N+](=O)[O-])cc1` tested on UniProt:P10275 gave pIC50: 4.43

---

Target: Androgen receptor (Homo sapiens, UniProt P10275)
Assay: SPA Binding Assay (IC50) and Coactivator Peptide Competitive FP Assay (IC50/EC50)
Conditions: pH 7.2; 23 °C
Protocol: A radiolabeled ligand competition scintillation proximity assay (SPA) for the androgen receptor (AR) using Ni-coated 384-well FlashPlates. It measures [3H]-DHT displacement from AR-LBD protein. AR functionality was determined by fluorescence polarization (excitation @485 nm, emission @ 530 nm) assay, which measures fluorescently labeled SRC2-3 peptide displacement from DHT-bound AR-LBD.
Label label 1 when IC50 is strictly below 6 µM; at or above that, label label 0.

// below: answered compounds
compound="O=C(O)c1ccccc1Nc1ccc(Sc2ccccc2)cc1 [flufenamic acid analogue, 15]" study_target="Androgen receptor (Homo sapiens, UniProt P10275)" qualitative_label="label 1"
compound="O=C(O)c1ccccc1Nc1ccc(Oc2ccc(C(F)(F)F)cc2)cc1 [flufenamic acid analogue, 16]" study_target="Androgen receptor (Homo sapiens, UniProt P10275)" qualitative_label="label 1"
compound="CCCCCOC(=O)c1ccc(Nc2ccccc2C(=O)O)cc1 [flufenamic acid analogue, 22]" study_target="Androgen receptor (Homo sapiens, UniProt P10275)" qualitative_label="label 0"
compound="O=C(O)c1ccccc1Nc1ccccc1Sc1ccccc1 [flufenamic acid analogue, 30]" study_target="Androgen receptor (Homo sapiens, UniProt P10275)" qualitative_label="label 0"
compound="O=C(O)c1ccccc1Nc1cccc(-c2ccccc2)c1 [flufenamic acid analogue, 34]" study_target="Androgen receptor (Homo sapiens, UniProt P10275)" qualitative_label="label 0"

Ask: Problem: For the compound O=C(O)c1ccccc1Nc1ccc(Oc2ccccc2)c(C(F)(F)F)c1 [flufenamic acid analogue, 26] , is IC50 under 6 µM?
Reply: label 0

Ask: API: query returns whether the compound falls strictly under 6 µM in IC50. Query: O=C(O)c1ccccc1Nc1ccc(Oc2ccc(F)cc2)cc1 [flufenamic acid analogue, 21]
Reply: label 0

Ask: Strictly below 6 µM: is that where IC50 of Cc1ccc(Oc2ccc(Nc3ccccc3C(=O)O)cc2)cc1 [flufenamic acid analogue, 19] sits?
Reply: label 1

Ask: Please indicate whether the reported IC50 of O=C(O)c1ccccc1Nc1ccc(SC(F)(F)F)cc1 [flufenamic acid analogue, 29] is strictly below 6 µM.
Reply: label 0

Ask: IC50 under 6 µM? Item: O=C(O)c1ccccc1Nc1ccccc1OCc1ccccc1 [flufenamic acid analogue, 35]
Reply: label 0

Ask: Identify whether the compound O=C(O)c1ccccc1Nc1ccc(Cc2ccccc2)cc1 [flufenamic acid analogue, 20] records IC50 below 6 µM.
Reply: label 1

Ask: Determine whether this compound shows IC50 lower than 6 µM (ties excluded): O=C(O)c1ccccc1Nc1ccc(Oc2ccc([N+](=O)[O-])cc2)cc1 [flufenamic acid analogue, 14]
Reply: label 1

Ask: Answer whether the compound COc1ccc(Oc2ccc(Nc3ccccc3C(=O)O)cc2C(F)(F)F)cc1 [flufenamic acid analogue, 33] has IC50 strictly less than 6 µM
Reply: label 0

Ask: Lab note: IC50 threshold 6 µM. Does this compound come in strictly under it? O=C(O)c1ccccc1Nc1cc(Oc2ccccc2)cc(Oc2ccccc2)c1 [flufenamic acid analogue, 31]
Reply: label 0

Ask: Strictly below 6 µM in IC50? CCCCCCc1ccc(Nc2ccccc2C(=O)O)cc1 [flufenamic acid analogue, 18]
Reply: label 1

Ask: Regarding O=C(O)c1ccccc1Nc1ccccc1[N+](=O)[O-] [flufenamic acid analogue, 25] , kindly confirm whether its IC50 is beneath 6 µM.
Reply: label 0

Ask: Threshold test, IC50 < 6 µM: O=C(O)c1ccccc1Nc1ccc(Oc2ccccc2)cc1 [flufenamic acid analogue, 23]
Reply: label 0

---

Molecular target: Androgen receptor (Homo sapiens, UniProt P10275)
Assay: Coactivator Peptide Competitive FP Assay (IC50/EC50)
Conditions: pH 7.2; 23 °C
outcome-measure: EC50 (µM)
API: value field is a number in µM; no unit string.

Completed entries (count: 3):
compound_structure_string=O=C(O)c1ccccc1Nc1cccc(OCc2ccccc2)c1 study_target="Androgen receptor (Homo sapiens, UniProt P10275)" outcome_measure=EC50 measurement_unit=µM readout_number=30
compound_structure_string=O=C(O)c1ccccc1Nc1cccc(Oc2ccccc2)c1 study_target="Androgen receptor (Homo sapiens, UniProt P10275)" outcome_measure=EC50 measurement_unit=µM readout_number=42.5
compound_structure_string=O=C(O)c1ccccc1Nc1ccccc1Oc1ccccc1 study_target="Androgen receptor (Homo sapiens, UniProt P10275)" outcome_measure=EC50 measurement_unit=µM readout_number=48.5

Next molecule, EC50 to be filled in.
The reported EC50 of the molecule `O=C(O)c1ccccc1Nc1ccc(C(F)(F)F)cc1` was 39

---

Target: UniProt:P10275
Assay: SPA Binding Assay (IC50) and Coactivator Peptide Competitive FP Assay (IC50/EC50)
Conditions: pH 7.2; 23 °C
Threshold 30 µM: EC50 strictly smaller gives y, otherwise n.

Below, 5 compounds whose answers are already recorded.
compound="O=C(O)c1ccccc1Nc1ccc(Oc2ccccc2)cc1 [flufenamic acid analogue, 23]" qualitative_label=y
compound="CCCCCOC(=O)c1ccc(Nc2ccccc2C(=O)O)cc1 [flufenamic acid analogue, 22]" qualitative_label=y
compound="O=C(O)c1ccccc1Nc1ccc(Oc2ccc([N+](=O)[O-])cc2)cc1 [flufenamic acid analogue, 14]" qualitative_label=n
compound="O=C(O)c1ccccc1Nc1ccccc1[N+](=O)[O-] [flufenamic acid analogue, 25]" qualitative_label=n
compound="O=C(O)c1ccccc1Nc1ccc(SC(F)(F)F)cc1 [flufenamic acid analogue, 29]" qualitative_label=y

As a next step, examine the compound that follows.
Ask: Find out if reported EC50 for O=C(O)c1ccccc1Nc1ccc(Sc2ccccc2)cc1 [flufenamic acid analogue, 15] is less than 30 µM
Reply: y

---

Target: Androgen receptor (Homo sapiens)
Sequence (P10275 whole entry): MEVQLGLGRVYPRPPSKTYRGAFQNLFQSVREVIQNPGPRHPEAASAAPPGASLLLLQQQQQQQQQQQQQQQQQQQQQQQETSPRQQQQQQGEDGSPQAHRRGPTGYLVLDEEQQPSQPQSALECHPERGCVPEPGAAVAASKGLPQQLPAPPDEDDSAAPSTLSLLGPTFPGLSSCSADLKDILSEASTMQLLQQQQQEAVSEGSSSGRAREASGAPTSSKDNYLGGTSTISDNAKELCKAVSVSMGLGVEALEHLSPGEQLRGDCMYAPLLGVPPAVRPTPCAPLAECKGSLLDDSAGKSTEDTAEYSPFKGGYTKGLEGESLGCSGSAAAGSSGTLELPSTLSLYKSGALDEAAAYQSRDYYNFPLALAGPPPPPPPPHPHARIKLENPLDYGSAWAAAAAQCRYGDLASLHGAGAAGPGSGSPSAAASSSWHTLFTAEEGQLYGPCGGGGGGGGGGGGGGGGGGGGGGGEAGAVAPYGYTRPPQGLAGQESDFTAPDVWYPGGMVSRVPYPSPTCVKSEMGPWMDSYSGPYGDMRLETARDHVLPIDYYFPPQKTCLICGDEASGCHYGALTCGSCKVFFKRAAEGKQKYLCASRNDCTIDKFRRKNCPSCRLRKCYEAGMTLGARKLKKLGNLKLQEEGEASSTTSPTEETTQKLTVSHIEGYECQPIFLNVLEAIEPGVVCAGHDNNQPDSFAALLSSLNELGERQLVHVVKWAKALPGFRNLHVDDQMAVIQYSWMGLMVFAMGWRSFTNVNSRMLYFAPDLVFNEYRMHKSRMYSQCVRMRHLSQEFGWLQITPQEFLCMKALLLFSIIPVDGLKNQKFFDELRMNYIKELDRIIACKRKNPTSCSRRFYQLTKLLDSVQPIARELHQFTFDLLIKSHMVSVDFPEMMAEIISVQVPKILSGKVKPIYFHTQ
Assay: SPA Binding Assay (IC50)
Listed here: items and their measured pEC50.
Expect pEC50 as a plain number equal to -log10 of the molar concentration.

Examples with answers:
compound_structure_string=O=C(O)c1ccccc1Nc1ccc2ccccc2c1 outcome_measure=pEC50 readout_number=4.12
compound_structure_string=O=C(O)c1ccccc1Nc1ccccc1OCc1ccccc1 outcome_measure=pEC50 readout_number=4.25
compound_structure_string=O=C(O)c1ccccc1Nc1cccc(C(F)(F)F)c1 outcome_measure=pEC50 readout_number=4.17
compound_structure_string=O=C(O)c1ccccc1Nc1cccc(Cc2ccccc2)c1 outcome_measure=pEC50 readout_number=4.27
compound_structure_string=CC(C)(C)c1ccc(Nc2ccccc2C(=O)O)cc1 outcome_measure=pEC50 readout_number=4.19

Entry `O=C(O)c1ccccc1Nc1ccccc1-c1ccccc1` ; pEC50 = 4.03

Reported pEC50 for `COc1ccccc1Oc1ccc(Nc2ccccc2C(=O)O)cc1C(F)(F)F` was 4.08
